# Tested on: HT-29
# Test details: NCI-60 SRB screen;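 note: half-maximal inhibitory concentration read as cell viability unlike GI50 net growth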
# Format: cell-based
# Protocol conditions: Homo sapiens, HT-29; HT29; five dose
Measurement type: IC50 (µM)

Compound: N#CC1C(=O)NC(c2ccccc2[N+](=O)[O-])c2sc3c(F)cccc3c21 (stereo not shown) [Compound 5c]
Measurement type: IC50
Readout value: 25.7

---

# System: panel of 60 cancer cell lines
# Test details: NCI-60 SRB screen, mean or range over the panel
# Type: cell-based, human
# Protocol conditions: Homo sapiens; mean over the cell lines; single dose 10^−5 M; read-out: Mean growth inhibition (%)
Property: inhibition at 10 µM; scope: individual compounds

Compound: COc1ccc(C2NC(=O)C(Cl)c3c2sc2c(F)cccc32)c(OC)c1 (centres unmarked) [Compound 4a]
Scale unit: %
inhibition at 10 µM: 1.85
//
Compound: O=C1NC(c2cccc([N+](=O)[O-])c2)c2sc3c(F)cccc3c2C1Cl (centres unmarked) [Compound 4d]
Scale unit: %
inhibition at 10 µM: 0.15
//
Compound: COc1ccc(C=C2Sc3c(F)cccc3C2=O)c(OC)c1 [Compound 2a]
Scale unit: %
inhibition at 10 µM: -3.74
//
Compound: CCN1CCN(C2C(=O)NC(c3cccc([N+](=O)[O-])c3)c3sc4c(F)cccc4c32)CC1 (centres unmarked) [Compound 6a]
Scale unit: %
inhibition at 10 µM: -0.71
//
Compound: O=C1C(=Cc2ccccc2[N+](=O)[O-])Sc2c(F)cccc21 [Compound 2c]
Scale unit: %
inhibition at 10 µM: 11.5
//
Compound: O=C1NC(c2cccc([N+](=O)[O-])c2)c2sc3c(F)cccc3c2C1N1CCCCC1 (centres unmarked) [Compound 6c]
Scale unit: %
inhibition at 10 µM: 2.54
//
Compound: N#CC1=C(N2CCOCC2)NC(c2cccc([N+](=O)[O-])c2)c2sc3c(F)cccc3c21 (centres unmarked) [Compound 8e]
Scale unit: %
inhibition at 10 µM: 1.3
//
Compound: N#CC1=C(Cl)NC(c2cccc([N+](=O)[O-])c2)c2sc3c(F)cccc3c21 (centres unmarked) [Compound 7b]
Scale unit: %
inhibition at 10 µM: 2.14
//
Compound: O=C1NC(c2ccccc2[N+](=O)[O-])c2sc3c(F)cccc3c2C1Cl (centres unmarked) [Compound 4c]
Scale unit: %
inhibition at 10 µM: 3
//
Compound: O=C1NC(c2cccc([N+](=O)[O-])c2)c2sc3c(F)cccc3c2C1N1CCOCC1 (centres unmarked) [Compound 6b]
Scale unit: %
inhibition at 10 µM: 3.19
//
Compound: N#CC1C(=O)NC(c2cccc([N+](=O)[O-])c2)c2sc3c(F)cccc3c21 (centres unmarked) [Compound 5d]
Scale unit: %
inhibition at 10 µM: 5
//
Compound: N#CC1=C(Nc2ccccc2F)NC(c2cccc([N+](=O)[O-])c2)c2sc3c(F)cccc3c21 (centres unmarked) [Compound 10]
Scale unit: %
inhibition at 10 µM: -0.095
//
Compound: O=[N+]([O-])c1cccc(C2NC3=C(Nc4ccccc4N3)c3c2sc2c(F)cccc32)c1 (centres unmarked) [Compound 9]
Scale unit: %
inhibition at 10 µM: 7.87
//
Compound: O=[N+]([O-])c1cccc(C2NC(N3CCCCC3)=C(Cl)c3c2sc2c(F)cccc32)c1 (centres unmarked) [Compound 8c]
Scale unit: %
inhibition at 10 µM: 7.22
//
Compound: COc1ccc(C2NC(=O)C(C#N)c3c2sc2c(F)cccc32)c(OC)c1 (centres unmarked) [Compound 5a]
Scale unit: %
inhibition at 10 µM: 52.5
//
Compound: COc1ccc(C2NC(=O)C(Cl)c3c2sc2c(F)cccc32)cc1 (centres unmarked) [Compound 4b]
Scale unit: %
inhibition at 10 µM: 8.66
//
Compound: O=[N+]([O-])c1cccc(C2NC(N3CCOCC3)=C(Cl)c3c2sc2c(F)cccc32)c1 (centres unmarked) [Compound 8b]
Scale unit: %
inhibition at 10 µM: 6.1
//
Compound: COc1ccc(C2NC(=O)C(C#N)c3c2sc2c(F)cccc32)cc1 (centres unmarked) [Compound 5b]
Scale unit: %
inhibition at 10 µM: 52.5
//
Compound: O=[N+]([O-])c1cccc(C2NC(Cl)=C(Cl)c3c2sc2c(F)cccc32)c1 (centres unmarked) [Compound 7a]
Scale unit: %
inhibition at 10 µM: 3.15
//
Compound: N#CC1C(=O)NC(c2ccccc2[N+](=O)[O-])c2sc3c(F)cccc3c21 (centres unmarked) [Compound 5c]
Scale unit: %
inhibition at 10 µM: 46.9
//
Compound: CCN1CCN(C2=C(Cl)c3c(sc4c(F)cccc34)C(c3cccc([N+](=O)[O-])c3)N2)CC1 (centres unmarked) [Compound 8a]
Scale unit: %
inhibition at 10 µM: -0.2
//
Compound: N#CC1=C(N2CCCCC2)NC(c2cccc([N+](=O)[O-])c2)c2sc3c(F)cccc3c21 (centres unmarked) [Compound 8f]
Scale unit: %
inhibition at 10 µM: 0.008
//
Compound: CCN1CCN(C2=C(C#N)c3c(sc4c(F)cccc34)C(c3cccc([N+](=O)[O-])c3)N2)CC1 (centres unmarked) [Compound 8d]
Scale unit: %
inhibition at 10 µM: 1.33
